# MEASUREMENT_NOTES: Repeat once-weekly IV dose toxicokinetics in rats
# Type: in vivo
# PROTOCOL_CONDITIONS: male, rat, in vivo, iv, 46.3 mg/kg, rats M, 46.3 mg/kg once-weekly IV, Day 0; read-out: T1/2 (converted)
MEASURED_QUANTITY: half-life (h)
Give your result in h as a bare value.

Which measured half-life value corresponds to CC1(C)C(=CC=C2CCCC(C=CC3=[N+](CCCCS(=O)(=O)[O-])c4ccc(S(=O)(=O)O)cc4C3(C)C)=C2Oc2ccc(CC(NC(=O)c3ccc(NCc4cnc5nc(N)[nH]c(=O)c5n4)cc3)C(=O)O)cc2)N(CCCCS(=O)(=O)O)c2ccc(S(=O)(=O)O)cc21 (stereo not shown) [pafolacianine] ?
7.99
